# Target: Estrogen receptor (Homo sapiens)
# Assay: NVS_NR_hER: NovaScreen (NVS) Nuclear Receptor Binding Assay for human Estrogen Receptor (ER) (AID 2283348)
Records with an inconclusive call do not appear. Calls of active or inactive are those of the source. Rule for the calls: active = hit-call score of the fitted dose curve at least 0.9, where 1 is the maximum; inconclusive = response in the unintended direction; inactive = score below 0.9.
Labels: 1 for active, 0 for inactive

1) CCCCCCCCCCCCc1ccccc1S(=O)(=O)O :: 1
2) C[C@@H]1C[C@H]2[C@@H]3CCC4=CC(=O)C=C[C@]4(C)[C@@]3(F)[C@@H](O)C[C@]2(C)[C@@]1(O)C(=O)COP(=O)(O)O :: 0
3) CCN(CC)CCNc1ccc(CNC=O)c2sc3ccc(OC)cc3c(=O)c12 :: 0
4) O=C(O)Cc1cc(I)c(Oc2cc(I)c(O)c(I)c2)c(I)c1 :: 0
5) COCC(C)O (configuration not stated) :: 1
6) CCc1nn(C2CCCCC2)c2cc(C3(C#N)CCC(C(=O)O)CC3)ccc12 (configuration not stated) :: 0
7) OCCC(F)(F)C(F)(F)C(F)(F)C(F)(F)C(F)(F)C(F)(F)C(F)(F)C(F)(F)F :: 0
8) CCCCCCCCCCCCN1CCCC1=O :: 0
9) Cc1oc(-c2ccccc2)nc1CCOc1ccc(C[C@H](Nc2ccccc2C(=O)c2ccccc2)C(=O)O)cc1 :: 0
10) O=[N+]([O-])c1ccc(O)cc1 :: 0
11) CCCCCCCCCCCCCC[N+](C)(C)C :: 1
12) ClC1=C(Cl)C(Cl)(Cl)C(Cl)=C1Cl :: 0
